All values here come from patent US9409952B2.

- experimental.protocol: PAMPA (parallel artificial membrane permeability assay)
- Type: in vitro ADME
- condition.summary: PAMPA; membrane permeation rate (Pe); 50 mM MOPSO buffer pH 6.5 with 5.0% glycocholic acid, 37° C., 18 hours; read-out: iPAMPA Pe
Starred links: 1 amine or outer side, 2 acyl side, 3 side chain; linkers in the order of their positions; H or OH if unused. Positions of bridges follow the written chain, without caps; N, C: chain ends. Non-standard residues stand in square brackets, D forms with d. Residues, ends and D or L forms follow the SMILES beside them. *: point of attachment. NMeF = CN[C@@H](Cc1ccccc1)C(=O)O; NMeGABA = CN(CCCC(=O)[*:2])[*:1]; NMeI = CC[C@H](C)[C@H](NC)C(=O)O; NMeβAla = CN(CCC(=O)[*:2])[*:1]; NMeL = CN[C@@H](CC(C)C)C(=O)O; NMeV = CN[C@H](C(=O)O)C(C)C; NMeA = CN[C@@H](C)C(=O)O; Piperidide = C1CCN(*)CC1; Sar = CNCC(=O)O; tBu = CC(C)(C)*
recorded.metric: Papp at 18 hours, 50 µM (×10⁻⁶ cm/s)
Report as a plain number; the unit ×10⁻⁶ cm/s is understood.

- CC(C)C[C@H]1C(=O)N(C)[C@@H](C)C(=O)N[C@@H]([C@@H](C)O)C(=O)N(C)[C@@H](C)C(=O)N(C)[C@@H](C(C)C)C(=O)N[C@@H](COC(C)(C)C)C(=O)N[C@H](C(=O)N2CCCCC2)CC(=O)N(C)CCC(=O)N(C)[C@@H](Cc2ccccc2)C(=O)N[C@@H](C)C(=O)N(C)[C@@H](C)C(=O)N[C@@H](Cc2ccccc2)C(=O)N1C [DP-465] ([NMeβAla][NMeF]A[NMeA]F[NMeL][NMeA]T[NMeA][NMeV]S(tBu)D-Piperidide; lactam N-12): 5.1

Moving on to another compound below.
query: I'd like to know its Papp at 18 hours, 50 µM. The compound in question is CC[C@H](C)[C@H]1C(=O)N(C)[C@@H](CC(C)C)C(=O)N[C@H](C(=O)N2CCCCC2)CC(=O)N(C)CCCC(=O)N(C)[C@@H](Cc2ccccc2)C(=O)N[C@@H](Cc2ccccc2)C(=O)N2CCC[C@H]2C(=O)N[C@@H](CC(C)C)C(=O)N(C)[C@@H](C(C)C)C(=O)N[C@@H]([C@@H](C)O)C(=O)N(C)CC(=O)N[C@@H](C)C(=O)N1C [DP-225] ([NMeGABA][NMeF]FPL[NMeV]T[Sar]A[NMeI][NMeL]D-Piperidide; lactam N-12)
result: 16

###

- experimental.protocol: PAMPA (parallel artificial membrane permeability assay)
- Format: in vitro ADME
- condition.summary: PAMPA; membrane permeation rate (Pe); 50 mM MOPSO buffer pH 6.5 with 5.0% glycocholic acid, 37° C., 18 hours; read-out: iPAMPA Pe
Positions of bridges follow the written chain, without caps; N, C: chain ends. Non-standard residues stand in square brackets, D forms with d. Residues, ends and D or L forms follow the SMILES beside them. *: point of attachment. NMeF = CN[C@@H](Cc1ccccc1)C(=O)O; NMeI = CC[C@H](C)[C@H](NC)C(=O)O; NMeL = CN[C@@H](CC(C)C)C(=O)O; NMeV = CN[C@H](C(=O)O)C(C)C; NMeA = CN[C@@H](C)C(=O)O; Piperidide = C1CCN(*)CC1; dNMeA = CN[C@H](C)C(=O)O; Sar = CNCC(=O)O; tBu = CC(C)(C)*
recorded.metric: Papp at 18 hours, 50 µM (nm/s)
Report as a plain number; the unit nm/s is understood.

Worked cases, Papp at 18 hours, 50 µM given:
- CC(C)C[C@H]1C(=O)N(C)[C@@H](CC(C)C)C(=O)N[C@H](C(=O)N2CCCCC2)CC(=O)N[C@@H](C(C)C)C(=O)N(C)[C@@H](Cc2ccccc2)C(=O)N[C@@H]([C@@H](C)O)C(=O)N(C)CC(=O)N[C@@H](COC(C)(C)C)C(=O)N1C [DP-693] (V[NMeF]T[Sar]S(tBu)[NMeL][NMeL]D-Piperidide; lactam N-8): 350
- CC[C@H](C)[C@H]1C(=O)N[C@@H](C)C(=O)N(C)[C@@H](CC(C)C)C(=O)N[C@@H]([C@@H](C)O)C(=O)N[C@@H](Cc2ccccc2)C(=O)N(C)[C@@H](Cc2ccccc2)C(=O)N(C)[C@@H](CC(C)C)C(=O)N[C@@H](COC(C)(C)C)C(=O)N(C)[C@@H](CC(C)C)C(=O)N(C)[C@@H](C)C(=O)N[C@H](C(=O)N2CCCCC2)CC(=O)N[C@H](C(C)C)C(=O)N1C [DP-219] ([dV][NMeI]A[NMeL]TF[NMeF][NMeL]S(tBu)[NMeL][NMeA]D-Piperidide; lactam N-12): 13
- CC[C@H](C)[C@H](NC(=O)[C@H](Cc1ccccc1)N(C)C(=O)[C@@H]1CC(=O)N[C@@H](C)C(=O)N(C)[C@@H](CC(C)C)C(=O)N[C@@H]([C@@H](C)O)C(=O)N(C)CC(=O)N(C)[C@@H](Cc2ccccc2)C(=O)N[C@@H](CC(C)C)C(=O)N1)C(=O)N1CCCCC1 [DP-567] (A[NMeL]T[Sar][NMeF]LD[NMeF]I-Piperidide; lactam N-7): 300
- CC[C@H](C)[C@@H]1NC(=O)[C@H](Cc2ccccc2)N(C)C(=O)[C@H](CC(C)C)N(C)C(=O)[C@H](Cc2ccccc2)NC(=O)[C@H](C)N(C)C(=O)[C@H]([C@@H](C)O)NC(=O)[C@@H](C)N(C)C(=O)C[C@@H](C(=O)N2CCCCC2)NC(=O)[C@H](CC(C)C)N(C)C(=O)[C@H](C(C)C)N(C)C1=O [DP-434] ([dNMeA]T[NMeA]F[NMeL][NMeF]I[NMeV][NMeL]D-Piperidide; lactam N-10): 380

Moving on to another molecule below.
query: I'd like to know its Papp at 18 hours, 50 µM. The molecule in question is CC[C@H](C)[C@@H]1NC(=O)[C@H](C)N(C)C(=O)[C@H](Cc2ccccc2)N(C)C(=O)[C@@H](C)N(C)C(=O)C[C@@H](C(=O)N(C)[C@@H](Cc2ccccc2)C(=O)N(C)[C@@H](Cc2ccccc2)C(=O)N[C@@H](C)C(=O)N2CCCCC2)NC(=O)[C@H](C)N(C)C(=O)[C@H]([C@@H](C)O)NC(=O)[C@H](C)N(C)C(=O)[C@H](CC(C)C)N(C)C(=O)[C@H](C)N(C)C1=O [DP-455] ([dNMeA][NMeF][NMeA]I[NMeA][NMeL][NMeA]T[NMeA]D[NMeF][NMeF]A-Piperidide; lactam N-10)
result: 150

###

Papp at 18 hours, 50 µM values, listed per item
- experimental.protocol: PAMPA (parallel artificial membrane permeability assay)
- Type: in vitro ADME
- condition.summary: PAMPA; membrane permeation rate (Pe); 50 mM MOPSO buffer pH 6.5 with 5.0% glycocholic acid, 37° C., 18 hours; read-out: iPAMPA Pe
Starred links: 1 amine or outer side, 2 acyl side, 3 side chain; linkers in the order of their positions; H or OH if unused. Positions of bridges follow the written chain, without caps; N, C: chain ends. Non-standard residues stand in square brackets, D forms with d. Residues, ends and D or L forms follow the SMILES beside them. *: point of attachment. NMeF = CN[C@@H](Cc1ccccc1)C(=O)O; NMeβAla = CN(CCC(=O)[*:2])[*:1]; NMeL = CN[C@@H](CC(C)C)C(=O)O; NMeA = CN[C@@H](C)C(=O)O; Piperidide = C1CCN(*)CC1; Sar = CNCC(=O)O
Report as a plain number; the unit ×10⁻⁶ cm/s is understood.

query: I'd like to know its Papp at 18 hours, 50 µM. The compound in question is CC(C)C[C@H]1C(=O)N[C@@H](C(C)C)C(=O)N(C)[C@@H](Cc2ccccc2)C(=O)N(C)[C@@H](C)C(=O)N[C@@H](Cc2ccccc2)C(=O)N[C@H](C(=O)N(C)[C@@H](Cc2ccccc2)C(=O)N[C@@H](C)C(=O)N2CCCCC2)CC(=O)N(C)CCC(=O)N[C@@H]([C@@H](C)O)C(=O)N(C)CC(=O)N1C [DP-200] ([NMeβAla]T[Sar][NMeL]V[NMeF][NMeA]FD[NMeF]A-Piperidide; lactam N-9)
result: 22

query: I'd like to know its Papp at 18 hours, 50 µM. The compound in question is CC[C@H](C)[C@H](NC(=O)[C@H](CC(C)C)N(C)C(=O)[C@H](CC(C)C)NC(=O)[C@H](C)N(C)C(=O)[C@@H]1CC(=O)N[C@@H](C)C(=O)N(C)[C@@H](CC(C)C)C(=O)N[C@@H](C(C)C)C(=O)N[C@@H](C)C(=O)N(C)[C@@H](CC(C)C)C(=O)N(C)[C@@H](CC(C)C)C(=O)N(C)[C@@H](Cc2ccccc2)C(=O)N[C@@H]([C@@H](C)O)C(=O)N(C)[C@@H](Cc2ccccc2)C(=O)N1)C(=O)N1CCCCC1 [DP-945] (A[NMeL]VA[NMeL][NMeL][NMeF]T[NMeF]D[NMeA]L[NMeL]I-Piperidide; lactam N-10)
result: 0.1
